- Target or test system: Neutrophil elastase (Homo sapiens)
- Method notes: The bimolecular rate constant Kobs/[I] to inhibit human leukocyte elastase (HLE) was determined
K obs / 1 strictly under 60 M⁻¹ s⁻¹ means 1; at 60 M⁻¹ s⁻¹ or over means -1.

Worked set:
Find out if reported K obs / 1 for `CCCCOP(=O)(OCCCC)On1c(=O)[nH]c2ccccc2c1=O` is less than 60 M⁻¹ s⁻¹ -1

What do you get for `CCCCS(=O)(=O)On1c(=O)[nH]c2ccncc2c1=O` ? 1

Likewise for `CCCCCS(=O)(=O)On1c(=O)[nH]c2ccccc2c1=O` ? 1

Would you mind doing `CCCCS(=O)(=O)On1c(=O)[nH]c2nccnc2c1=O` as well? 1

# repeat for `CCCCS(=O)(=O)On1c(=O)[nH]c2cccnc2c1=O` -1

Item: `CC(C)CS(=O)(=O)On1c(=O)[nH]c2ccccc2c1=O` -1

Others:
Strictly below 60 M⁻¹ s⁻¹ in K obs / 1? `CCCCS(=O)(=O)On1c(=O)[nH]c2ccccc2c1=O` -1

What do you get for `CCCOP(=O)(OCCC)On1c(=O)[nH]c2ccccc2c1=O` ? -1
